Catalogue of GI50 readings, one per entry.
Tested on: SF-268
Experiment: NCI tumour cell line growth inhibition, 48 h
Activity calls are given as the source filed them. Cut-off read from the data, not from the text of the source: active = GI50 up to about 1.1 µM and inactive = higher. Where a SMILES comes first, the peptide text is derived from it.

Solved cases (3 shown):
MOLECULE	RESULT
CC(=O)NC(CS)C(=O)NC(CO)C(=O)NC(CO)C(=O)NC(Cc1c[nH]c2ccccc12)C(=O)N1CCCC1C(=O)NC(CO)C(=O)NC(Cc1c[nH]c2ccccc12)C(=O)NC(Cc1c[nH]cn1)C(=O)NC(CO)C(=O)NC(Cc1c[nH]c2ccccc12)C(=O)NCC(=O)NCC(=O)NC(CC(=O)O)C(=O)NC(CCC(N)=O)C(=O)NC(CCCCN)C(=O)NC(Cc1ccccc1)C(=O)NC(CCCNC(=N)N)C(=O)NC(CCCCN)C(N)=O (centres undefined) (Ac-CSSWPSWHSWGGDQKFRK-NH2; configuration not given here)	> 25 µM (inactive)
O=C(CSc1nnc(SCC(=O)NN=C2CCCCC2)s1)NN=C1CCCCC1	> 100 µM (inactive)
O=P(O)(O)OC1O[C@H](CO)[C@H](O)[C@H](O)[C@H]1O (some centres undefined)	> 100 µM (inactive)

What value of GI50 has been recorded for this entry: COc1cccc(/N=C/c2cc(OC)c(OC)c(OC)c2)c1
> 100 µM (inactive)

---

System: NCI-H226
Test: NCI tumour cell line growth inhibition, 48 h
Calls of active or inactive are those of the source. No stated cut-off is given here; in the data, active = GI50 up to about 1.1 µM and inactive = higher.
RECORDED METRIC: GI50

> print(dat)
                                   molecule               result
1          Cc1cccc2c1c(=O)c1c(O)cc(O)cc1n2C  > 100 µM (inactive)
2  Cn1c2c(c3ccccc31)CC1c3c(c4ccccc4n3C)CC21 (stereo not given)  > 100 µM (inactive)
3            O=C1Nc2ccccc2Nc2nc3cccccc-3c21  > 100 µM (inactive)
4  CC1(C)OCC(C2OC(=O)C(OCc3ccccc3)=C2OCc2ccccc2)O1 (stereo not given)   32.7 µM (inactive)

What value of GI50 has been recorded for this entry: NN=C(CC(O)(C(F)(F)Cl)C(F)(F)Cl)CC(O)(C(F)(F)Cl)C(F)(F)Cl
> 10 µM (inactive)

What do you get for COc1ccc(OC)c(NC(=O)CCC/C(CC(=O)c2ccc(O)c(OC)c2)=N\Nc2nnc(C)n2N)c1 ?
> 100 µM (inactive)

What do you get for C=C(C)C1(Sc2ccc(OC)cc2)CC1 ?
4.81 µM (inactive)

What do you get for COC(C[C@H]1CCCC[C@]1(O)/C(=C\CO[Si](C(C)C)(C(C)C)C(C)C)Sc1ccccc1)OC ?
23.2 µM (inactive)

What do you get for Cc1c(Cl)ccc2c1NC(=O)C2(O)CC(=O)c1ccc(Cl)cc1 (stereo not given) ?
> 55.2 µM (inactive)

What do you get for COC(=O)C(Cc1nc2ccccc2nc1O)C(=O)C(=O)Nc1ccc(OC)cc1[N+](=O)[O-] (stereo not given) ?
> 100 µM (inactive)

---

Tested on: HT-29
Test: NCI tumour cell line growth inhibition, 48 h
Calls of active or inactive are those of the source. Rule as the data show it: active = GI50 up to about 1.1 µM and inactive = higher.
RECORDED METRIC: GI50

Solved cases (5 shown):
> print(dat)
                                   compound               result
1        COc1ccc(CNc2nc3ccccc3nc2C(=O)O)cc1  > 100 µM (inactive)
2  O=P(Nc1ccc(Cl)cc1)(Oc1ccccc1)N(CCCl)CCCl (stereo unspecified)  > 100 µM (inactive)
3  CN(Cc1ccccc1)C(=S)S [SODIUM BENZYL(METHYL)CARBAMODITHIOATE]   37.5 µM (inactive)
4  COC(=O)C(Cc1ccccc1)OC(=O)C(N)CC(=O)O (stereo unspecified)  > 100 µM (inactive)
5                       CCCCCCCCSC(=O)NCCCC   26.4 µM (inactive)

What value of GI50 has been recorded for this entry: CC(=O)Nc1ccc(/C=C/C(=O)c2sc(-n3nc(-c4ccccc4)cc3-c3ccccc3)nc2C)cc1
84.7 µM (inactive)

---

Tested on: NCI-H522
Test: NCI tumour cell line growth inhibition, 48 h
Calls of active or inactive are those of the source. Rule as the data show it: active = GI50 up to about 1.1 µM and inactive = higher.
RECORDED METRIC: GI50

Solved cases (9 shown):
> print(dat)
                                   compound  recorded.metric               result
1                      ON=C1CCCCC(=NO)CCCC1             GI50  > 100 µM (inactive)
2  Cc1c(C)c(S(=O)(=O)N(CCCCCON)OCCCN)c(C)c2c1OC(C)(C)CC2             GI50   17.7 µM (inactive)
3                       Nc1cc(F)ccc1CC(=O)O             GI50  > 100 µM (inactive)
4  CC(C)C(Sc1nc(-c2ccccc2)c(-c2ccccc2)[nH]1)C(=O)N/N=C/c1ccc([N+](=O)[O-])cc1 (stereo not given)             GI50   15.3 µM (inactive)
5  O=C(O)c1cccc(S(=O)(=O)NN2C(=O)CSC2c2ccc(Cl)cc2Cl)c1 (stereo not given)             GI50   24.7 µM (inactive)
6          CS(=O)(=O)OCCCSCCSCCCOS(C)(=O)=O             GI50  > 100 µM (inactive)
7  CC1(C)CC2=C(Sc3ccccc3N2)C(=O)C1C(=O)C(=O)Nc1cc(Cl)ccc1Cl (stereo not given)             GI50  > 100 µM (inactive)
8  Cc1ccc(NC(=O)C2C(=O)N(c3ccc(C)c(C)c3)C(=O)/C2=N\NC(N)=S)cc1C (stereo not given)             GI50   50.2 µM (inactive)
9  CC(=O)N1N=C(c2ccc3ccccc3c2O)CC1c1ccc(N(C)C)cc1 (stereo not given)             GI50  > 100 µM (inactive)

# input for lookup
What value of GI50 has been recorded for this entry: O=C(NCCc1ccccc1)c1cc(/C=C/c2cc(O)ccc2O)ccc1O
1.64 µM (inactive)

---

System: SNB-75
Test: NCI tumour cell line growth inhibition, 48 h
Calls of active or inactive are those of the source. Cut-off read from the data, not from the text of the source: active = GI50 up to about 1.1 µM and inactive = higher. Where a SMILES comes first, the peptide text is derived from it.
RECORDED METRIC: GI50

What value of GI50 has been recorded for this entry: Nc1ccc(C(=O)O)cc1
> 100 µM (inactive)

What do you get for COc1cc(C(c2ccc3c(c2)OCO3)C2SCCCS2)cc(OC)c1OC (stereo not drawn) ?
2.21 µM (inactive)

What do you get for Cc1nn(C)cc1P(=S)(c1ccccc1)c1ccccc1 ?
24.4 µM (inactive)

What do you get for O=C(Nc1ccccc1-c1nn(CO)c(=S)n(CO)c1=O)C(F)(F)F ?
92.3 µM (inactive)

What do you get for Cc1cccc(C)c1N1C(=O)C(=O)C(c2nc3ccccc3s2)/C(=N/c2cccc3c(=O)[nH][nH]c(=O)c23)C1=O (stereo not drawn) ?
81.8 µM (inactive)

What do you get for Nc1ccccc1OCCCOc1ccccc1N ?
> 100 µM (inactive)

What do you get for N/N=C(\N)Nc1cccc2ccccc12 ?
> 100 µM (inactive)

What do you get for O=C(NCP(=O)(c1ccccc1)c1ccccc1)OCc1ccccc1 ?
6.65 µM (inactive)

What do you get for CC(=O)c1c(C)cn(S(=O)(=O)NC(=O)Nc2nncs2)c1C ?
> 100 µM (inactive)

What do you get for CC1(C)COC(c2cccc(C(O)c3ccc(Cl)cc3)c2)=N1 (stereo not drawn) ?
2.94 µM (inactive)

What do you get for CCOC(=O)c1nc2ccccc2nc1Nc1ccc(Cl)c(Cl)c1 ?
20.9 µM (inactive)

What do you get for COC(=O)c1c(C)cccc1C1CN=NC12Cc1cc(C)c(C)cc1C2=O (stereo not drawn) ?
38.1 µM (inactive)

What do you get for COc1cc(C2=NN(C)C(c3ccc([N+](=O)[O-])o3)C2)cc(OC)c1OC (stereo not drawn) ?
83.2 µM (inactive)

What do you get for O=C1Nc2ccccc2Nc2nc3cccccc-3c21 ?
> 100 µM (inactive)

What do you get for CCOC(=O)/C(C#N)=C/c1[nH]c(C)c(C)c1C ?
> 100 µM (inactive)

What do you get for CC(Oc1ccc(Cl)cc1Cl)C(=O)NN1C(=O)CC(=O)NC1=S (stereo not drawn) ?
> 100 µM (inactive)

What do you get for CC(=O)NC(CS)C(=O)NC(CO)C(=O)NC(CO)C(=O)NC(Cc1c[nH]c2ccccc12)C(=O)N1CCCC1C(=O)NC(CO)C(=O)NC(Cc1c[nH]c2ccccc12)C(=O)NC(Cc1c[nH]cn1)C(=O)NC(CO)C(=O)NC(Cc1c[nH]c2ccccc12)C(=O)NCC(=O)NCC(=O)NC(CC(=O)O)C(=O)NC(CCC(N)=O)C(=O)NC(CCCCN)C(=O)NC(Cc1ccccc1)C(=O)NC(CCCNC(=N)N)C(=O)NC(CCCCN)C(N)=O (stereo not drawn) (Ac-CSSWPSWHSWGGDQKFRK-NH2; configuration not given here) ?
> 25 µM (inactive)

What do you get for CN(C(=O)[C@H](NC(=O)OCc1ccccc1)c1ccccc1)C1CCCCC1N1CCCC1 (stereo partly drawn) ?
97.3 µM (inactive)
